test system: PPARg:RXRa (NR concentration 180 nM, RXRa partner concentration 90 nM); test: PBM binding z-score (relative to random genomic background probes); higher = stronger binding; sequences stand for … in GC…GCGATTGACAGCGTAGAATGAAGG
PBM binding z-score for assorted sequences
endpoint_name: PBM binding z-score

• TCTCGGAGGACACGAAAGGTCAGAGCTCGACATC = 1.37
• CCTTACGGGTCCAGGTTATAGCACGGGTGGTACG = 0.168
• TCGAGTAGGTTACCAATGGTGCATTCAGCTTTCT = 0.0197
• GCGACTGGGACAAAGCAGGTTACCATAAGGTTGG = 0.76
• TCTGCTAGGTCAACGATGGTCAGCTACTCTGCTA = 2.4
• CAGCCAAGGTCAGGGCCAGTATAGGAGGAACGTT = 2.73
• TTACCAAGGTGAGCTGAGGTCGTTGACCCAACTC = 0.441
• ATATGTAGGTTAGCTGGGGTCAATCAGACTAGGC = 5.84
• AGAATGAGGTTACCAAAGATCAGGGCAACGCTTG = 3.06
• CCTCGGAGGACAGAACGTCAGAGCTGTCCGCTTT = -0.391
• TCAGCTAGGTCAACGATGGTCAGCTAATCTGCTA = 2.64
• TGATTGAGGTTATAAGATCAGGGAACGTTGCAAA = 0.965

----------
system: LXRb homodimer (NR concentration 270 nM); experiment: PBM binding z-score (relative to random genomic background probes); higher = stronger binding; sequences stand for … in GC…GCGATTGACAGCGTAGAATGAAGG
endpoint_name: PBM binding z-score

* TCTTGTAGATCAAGGAGGTTAAGAAAGCCTGAGT | -0.443
* GCTTGTAGGTCAAGGTTAAGAAAGACTAAGCTAA | 0.186
* ATCTCTAGGTCAGACTCAGTTCAGTGAAGAACGC | 2
* TCTCGGAGGACATGAAGGTCAGAGCTTTCCAGAG | -0.779
* CCTACTGGGCCAAAAAGCTCATTGATGCCGATAA | -1.22
* TCTAGCAGGCCAGAGGGTCCCTCAAGAGGTACGG | -1.75
* ATATGTAGGTTAAGGGTTATTCAGGTTGGTTCGC | 1.11
* CGTCCAAGGTCAGCAAGTCAGTGAAAGCGACGTG | -0.381
* GCTTACGGGTCAAAGGTTATTGCATGAATAGAAT | 0.701
* TCATATAGGTAAAGGTGAAAGCCGAACGATATGA | -0.488
* GCTAGCAGGGCATTTGGGTCACTCAATGACGGGC | -0.663
* GCTTACGGGTCAAAGGTAATAGCATGAATAGAAT | 0.154
* CCTCGGAGCACAACAGGAGGTCAGAGCTGCCAGA | -0.755
* AATACAGGGTCACTAGGCCAGGGTAGGTACGAAT | 0.895
* CGTCAAAGTTCAACTAAGGTAGCGTAAAGCACGC | 1.98
* AGAATGTGGTTATACGTAGATCAGGGAAGAAAGT | -0.0614
* TCTAGTTGGTCAAAGGTCATACACTCGAAATGCG | 2.02
* AGAATGAGGTTATACGTACATCAGGGAAGAAAGT | 0.14
* ATCTCTAGGTAGAGTTCAGTGAAAGATCGATAGA | 0.516
* TCTTGTAGATGAACAGGAGGTTAAGAAAGATCGA | -0.35
* TAGCCTAGGTCATTGCGCCAGTATAGTACGCATC | 0.632
* CCTAGTTGGTCAGGATGTCACACACCGGATATGA | 0.348
* ATATGTAGATTACATCCGGGTCATTCAGGCTATG | 0.664
* TAGCCTATGTCAGATCGGGCCAGTATACGCTATA | -0.818
* CCTACTGGGCCAAAGGTCATGGATTCCAATGCTC | 0.296
* CCTAATGGGCCATTCAGAGGTCATTGATCATATG | 1.04

----------
system: VDR:RXRa (NR concentration 270 nM, RXRa partner concentration 90 nM); test: PBM binding z-score (relative to random genomic background probes); higher = stronger binding; sequences stand for … in GC…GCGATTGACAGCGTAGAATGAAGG
endpoint_name: PBM binding z-score

• TTTACAGGGTCAAAGGCCAGAGTACGAATGTCGA = 4.79
• TCTTTTAGATCAAGCAGGTTAAGAAAGCCTGAGT = 0.762
• ATCCCAAGGTGATCGTGAGGTCGTTGATACTAAC = 2.87
• TCGAGTAGGTTACCAATGGGGCATTCACCTTTCT = 0.284
• CGTCCAAGGTTAAAGGTCAGTGAAGAGATGACGG = 4.69
• AGAATGAGGTTATTAAGATCAGGGACTTGCGGTC = 2.47

----------
test system: PPARg DBDmut IVT, anti-PPARg (DBD mutation: PPARg1 K132A/R137A, NR concentration 270 nM); assay: PBM binding z-score (relative to random genomic background probes); higher = stronger binding; sequences stand for … in GC…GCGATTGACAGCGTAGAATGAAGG
endpoint_name: PBM binding z-score

* ATATGTAGGTTAAGGGTCATTCAAGTTGGTTCGC | 1.82
* TCACGGAGGACACGAAGGTCAGAGCTTTCCAGAG | -0.604
* TAGCCTAGGTCATTCATGGGCCAGTATAGAAAGC | 0.314
* AGAAAGAGGGCAATGAGTTGATAGCACGGGTGGC | 0.306
* CCTTACGGGTCAAGCTTATAGCACGGGTGGTACG | -0.188
* CCGAGTAGGTTATGGCGCATTCAGGCAACGGTGA | -0.415
* ATCTCTAGGTAAGACTCAGTTCCGTGAAGAACGC | 0.647
* TCTATTAGTTGAAGGGCCACCGACGAGTCCGTTT | 0.346
* TCACCAAGGTGAAAGGTCGTTGATGCACGCCTTG | 0.0423
* GCGACTGGGGCATCAGCAGGCTACCATAACTTAA | -1.56
* TCTTGTAGATCAAAGGGTAAGAAAGCCGAAGCCT | -0.151
* TCTATTAGTTGATTACGGCAACCGAAACAGCGGA | 1.25
* TGAATGAGGTTATAAGATCATGGAACGTTGCAAA | 0.209
* CTCGAAAGGTCGTGCTCAGGTGACTATACCAAAC | 0.674
* ATTCGGAGGACAAAGGTCAGAGCTACGCCAGTGA | -0.48
* GCAGACAGGTGAAACGCAGGTAACACAGGGTGGC | -0.396
* AGAACGAGGGCACGCTGAGTTGATAGCCGAGTAG | 0.266
* ACTATTAGATGAGACGAGGGCAACCGATAGGTTG | 1.11
* CTAACTAGGTCATTGACAGGACAGTGAATAGTAA | 4.56
* TCATAAAGGTAAACAGGTGAAAGTCCGTAAGTTA | 0.863
* TCTAGTTGGTCAAAGGTCACACATTCGAAATGCG | 1.94
* ATTTCTAGGTAACAAGTTCAGTGAAAGAGAGGAC | 2.25
* CCTACTGGGCCCAAAAGGTCATTGATGCCGATAA | -1.17
* TCTATTCGTTGATTAGGGCAACCGAAACAGCGGA | 0.685
* ACTACCAGGCCAAGGGTCACTCAAGATTAGTCCG | -0.0701
* CAAACTACGTCAAAGGTCAAAGTCGAGCCAACCA | 3.09
* GCATATAAGTAATACAAGGTGAAAGTCCGATTGT | 0.728
* CCTCGGATGACAACAGGAGGTCAGAGCTGCCAGA | -0.797
* ATCTCTAGGTAAAAGTACAGTGAATCCCGAGGAT | 1.43
* TTACCAAGGTAAAGGTCGTTGATCCCTCTGTAGA | 0.564
* TAGCCTAGGTCAGATCGGGCCAGGATACGCTATA | -0.442
* ATATGTAGGTTAAGGGTCATTCAGGTTGGTTCGC | 1.61
* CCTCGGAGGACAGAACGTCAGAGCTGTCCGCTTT | -1.43
* TCGCGGAGGACACGAAAGGTCAGAGCTCGACATC | -0.746
* CCTCCAAGGTCAATGCTAGGTCAGTGAAAGCATT | -0.621
* CGAACGAGGGCAAGAGTTGATAGCAAATGCCGAT | -0.307
* CCTGGTTGGTCAAGGTCACACACGCTATAGGTAC | 0.0653
* TCATATGGGTAAAAGGTGAAAGTCGGTGTGGTAA | 0.338
* TATACAGGGTCAAAGGCCAGAGAACGAATGTCGA | 1.99
* TCTCGGAGGACACGAAAGGTCAGAGCGCGACATC | -0.0951
* CAAACAAGGTCAAGGTCAAAGTCGGTTTGTGCCA | 1.15
* ATACCAAAGTGATCGTGAGGTCGTTGATACTAAC | 0.857
* CCTTACGGCTCACGAGGTTATAGCACGACGAGCG | 0.282
* TCATATAGGCAAAAGGTGAAAGTCGGTGTGGTAA | -0.517
* TGAATGAGGTTAAAGATCAGTGAACGTGGCGTCG | 0.242
* ATCGAAAGGTCGTGAGGGGAGTATACAGAAAGGC | 0.649
* CTCGAAAGGTCGTGCTCAAGTGAGTATACCAAAC | 0.784
* CACGAAAGGTCGTGCTCAGGTGAGTATACCAAAC | 0.745
* GAGACTGGGGCAAAGCAGGTTACCATAAGGTTGG | 0.122
* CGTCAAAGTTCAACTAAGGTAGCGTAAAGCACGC | 0.743
* TCTATTAGTTGATCAGGGCAACCGAAACAGCGGA | 0.797
